- TARGET UNDER TEST: T1, murine IL-21R extracellular domain His-Flag fusion protein (murine, UniProt Q9JHX3 20-237)
- T1 construct: Biotinylated in the ELISAs; also called mIL-21R-H/F; murine IL-21R-H/F
- METHOD NOTES: SPR, Ab captured on anti-human IgG
Entries and their measured Kd follow.
Field: numeric (nM). Do not append units.

Reported Kd for AbP (antibody, human IgG1, V domains shown, CDR3 graft, residue limits derived as for m29; also called VHP/VL20; VHPTM/VL20) VH: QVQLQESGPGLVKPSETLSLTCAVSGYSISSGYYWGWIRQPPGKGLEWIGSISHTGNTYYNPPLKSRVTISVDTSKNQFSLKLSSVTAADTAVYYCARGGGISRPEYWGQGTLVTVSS VL: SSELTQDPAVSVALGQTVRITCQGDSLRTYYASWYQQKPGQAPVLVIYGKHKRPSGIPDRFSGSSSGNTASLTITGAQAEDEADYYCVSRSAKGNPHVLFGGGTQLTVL : what is it?
50.8

And AbU (antibody, human IgG1, V domains shown, CDR3 graft, residue limits derived as for m29; also called VHP/VL25; VHPTM/VL25) VH: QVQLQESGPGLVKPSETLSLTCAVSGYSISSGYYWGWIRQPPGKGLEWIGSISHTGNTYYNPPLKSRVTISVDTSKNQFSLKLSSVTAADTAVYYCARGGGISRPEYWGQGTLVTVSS VL: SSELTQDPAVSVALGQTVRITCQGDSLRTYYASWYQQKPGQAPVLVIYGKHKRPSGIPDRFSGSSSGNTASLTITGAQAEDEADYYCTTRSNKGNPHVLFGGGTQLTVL ?
44.2

And AbO (antibody, human IgG1, V domains shown, CDR3 graft, residue limits derived as for m29; also called VHP/VL16; VHPTM/VL16) VH: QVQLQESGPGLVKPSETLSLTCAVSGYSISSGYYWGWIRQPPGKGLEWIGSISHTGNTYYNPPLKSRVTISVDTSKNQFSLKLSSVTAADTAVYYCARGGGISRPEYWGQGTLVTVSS VL: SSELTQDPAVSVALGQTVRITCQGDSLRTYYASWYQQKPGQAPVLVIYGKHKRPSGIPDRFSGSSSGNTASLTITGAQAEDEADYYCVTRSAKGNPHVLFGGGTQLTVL ?
49.2

// next entry
Reported Kd for AbQ (antibody, human IgG1, V domains shown, CDR3 graft, residue limits derived as for m29; also called VH3/VL2; VH3DM/VL2) VH: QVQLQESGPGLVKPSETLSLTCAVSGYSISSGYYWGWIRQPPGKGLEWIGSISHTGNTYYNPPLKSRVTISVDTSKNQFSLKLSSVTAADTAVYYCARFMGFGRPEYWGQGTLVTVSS VL: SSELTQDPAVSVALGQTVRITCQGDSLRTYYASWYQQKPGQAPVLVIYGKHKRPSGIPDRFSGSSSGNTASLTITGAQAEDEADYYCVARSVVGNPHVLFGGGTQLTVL : what is it?
68.8
